subject.of.test: T1, human IL-36R (human, UniProt Q9HB29 20-575)
T1 sequence (looked up): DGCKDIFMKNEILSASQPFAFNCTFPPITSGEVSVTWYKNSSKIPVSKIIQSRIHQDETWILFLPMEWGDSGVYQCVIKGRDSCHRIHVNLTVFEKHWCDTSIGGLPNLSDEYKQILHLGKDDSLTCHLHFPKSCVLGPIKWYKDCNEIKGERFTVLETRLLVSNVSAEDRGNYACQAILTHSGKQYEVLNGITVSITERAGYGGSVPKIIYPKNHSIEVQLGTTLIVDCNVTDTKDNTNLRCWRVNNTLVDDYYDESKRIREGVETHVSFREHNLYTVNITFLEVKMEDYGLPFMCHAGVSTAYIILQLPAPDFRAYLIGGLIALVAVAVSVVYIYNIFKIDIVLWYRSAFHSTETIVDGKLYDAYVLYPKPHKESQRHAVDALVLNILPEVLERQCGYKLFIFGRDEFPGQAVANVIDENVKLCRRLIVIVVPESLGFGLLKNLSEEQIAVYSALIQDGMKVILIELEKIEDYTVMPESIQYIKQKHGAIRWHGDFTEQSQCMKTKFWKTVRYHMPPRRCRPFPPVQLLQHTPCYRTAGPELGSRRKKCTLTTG
test.name: cell-based or functional assay
measured.metric: IC50, IL-6 release under IL-36 β stimulation (NCI/ADR-RES cells) (µg/mL)
Respond with the bare value in µg/mL.

Worked cases, IC50, IL-6 release under IL-36 β stimulation (NCI/ADR-RES cells) given:
| binder | numeric.readout |
| --- | --- |
| anti-IL-36R chimeric antibody 900497 (antibody, V domains shown, Human-mouse chimera: human IgG1 heavy-chain constant region with L234A and L235A (Eu numbering), human kappa constant region) VH: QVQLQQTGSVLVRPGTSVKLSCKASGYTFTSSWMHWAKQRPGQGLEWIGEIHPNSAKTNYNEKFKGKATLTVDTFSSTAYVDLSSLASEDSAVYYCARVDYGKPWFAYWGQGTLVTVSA VL: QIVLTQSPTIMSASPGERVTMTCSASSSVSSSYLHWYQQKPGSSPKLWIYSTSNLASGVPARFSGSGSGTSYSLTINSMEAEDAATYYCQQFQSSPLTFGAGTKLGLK | 0.0204 |
| humanized anti-IL-36R antibody 900527 (antibody, V domains shown, IgG1 (human IgG1 L234A/L235A, human kappa); also called HB0034) VH: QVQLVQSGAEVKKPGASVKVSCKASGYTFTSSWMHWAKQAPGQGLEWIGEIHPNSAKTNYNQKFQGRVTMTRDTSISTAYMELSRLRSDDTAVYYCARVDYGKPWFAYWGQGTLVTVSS VL: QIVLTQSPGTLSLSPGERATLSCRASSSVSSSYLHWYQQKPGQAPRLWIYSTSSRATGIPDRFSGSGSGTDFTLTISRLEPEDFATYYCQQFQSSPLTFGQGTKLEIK | 0.0139 |
| humanized anti-IL-36R antibody 900534 (antibody, V domains shown, IgG1 (human IgG1 L234A/L235A, human kappa)) VH: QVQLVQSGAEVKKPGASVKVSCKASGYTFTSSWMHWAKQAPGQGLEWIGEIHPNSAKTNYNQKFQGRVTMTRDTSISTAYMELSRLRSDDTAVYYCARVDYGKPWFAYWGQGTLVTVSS VL: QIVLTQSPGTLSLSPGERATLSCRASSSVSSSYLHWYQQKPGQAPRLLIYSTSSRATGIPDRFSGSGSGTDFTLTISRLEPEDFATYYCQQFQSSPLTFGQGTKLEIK | 0.0168 |

Turning now to a further binder:
q: // IC50, IL-6 release under IL-36 β stimulation (NCI/ADR-RES cells) lookup, key: humanized anti-IL-36R antibody 900513 (antibody, V domains shown, IgG1; built from the chimeric expression plasmids (human IgG1 L234A/L235A, human kappa)) VH: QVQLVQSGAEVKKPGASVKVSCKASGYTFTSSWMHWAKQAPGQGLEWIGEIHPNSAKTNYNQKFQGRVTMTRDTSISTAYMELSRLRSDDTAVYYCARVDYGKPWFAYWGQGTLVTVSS VL: EIVLTQSPGTLSLSPGERATLSCSASSSVSSSYLHWYQQKPGQAPRLWIYSTSNRATGIPDRFSGSGSGTDFTLTISRLEPEDFATYYCQQFQSSPLTFGQGTKLEIK
a: 0.0223
